MEASURED TARGET: human RORgT (Homo sapiens, UniProt P51449)
Construct: expressed in transfected cells
Sequence (P51449 267-516): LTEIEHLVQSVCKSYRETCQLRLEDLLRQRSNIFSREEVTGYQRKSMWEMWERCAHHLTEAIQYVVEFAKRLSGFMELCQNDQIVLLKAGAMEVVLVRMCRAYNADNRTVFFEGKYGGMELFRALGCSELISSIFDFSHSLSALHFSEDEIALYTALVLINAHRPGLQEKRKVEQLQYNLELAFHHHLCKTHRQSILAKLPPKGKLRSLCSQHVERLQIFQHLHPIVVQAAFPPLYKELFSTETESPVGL
ASSAY TEXT: RORgT Gal4 Luciferase Reporter Gene Assay
Assay type: cell-based
STUDY CONDITIONS: engineered Jurkat cells overexpressing RORgT (LBD or full length) fused with Gal4 Luc reporter; 18 hours at 37° C.; luminescence
# Lookup of reported EC50 keyed by entry

| CHEMICAL STRUCTURE | EC50 |
| --- | --- |
| CS(=O)(=O)N1CCC(CCC(=O)N2CC[C@@]3(S(=O)(=O)c4ccccc4)c4ccc(OCc5c(Cl)cccc5Cl)cc4CC[C@@H]23)CC1 | 259 nM |
| O=C(CC1CCS(=O)(=O)CC1)N1CC[C@@]2(S(=O)(=O)c3ccccc3)c3ccc(OCc4c(Cl)cccc4Cl)cc3CC[C@@H]12 | 66 nM |
| COC(=O)[C@H]1CC[C@H](C(=O)N2CC[C@@]3(S(=O)(=O)c4ccc(F)cc4)c4ccc(OCc5cc(F)ccc5Cl)cc4CC[C@@H]23)CC1 | 56 nM |
| Cn1cc(C(=O)N2CC[C@@]3(S(=O)(=O)c4ccccc4)c4ccc(OCc5c(Cl)cccc5Cl)cc4CC[C@@H]23)cn1 | 317 nM |
| CS(=O)(=O)CC(=O)N1CC[C@@]2(S(=O)(=O)c3ccc(F)cc3)c3ccc(OCc4cc(F)c(F)cc4Cl)cc3CC[C@@H]12 | 266 nM |
| CC1(C(=O)N2CC[C@@]3(S(=O)(=O)c4ccc(F)cc4)c4ccc(OCc5c(F)cccc5C(F)(F)F)cc4CC[C@@H]23)CCS(=O)(=O)CC1 | 14 nM |

###

MEASURED TARGET: human RORgT (Homo sapiens, UniProt P51449)
ASSAY TEXT: RORgT Gal4 Luciferase Reporter Gene Assay
STUDY CONDITIONS: engineered Jurkat cells overexpressing RORgT (LBD or full length) fused with Gal4 Luc reporter; 18 hours at 37° C.; luminescence
pEC50: −log10 of the molar value.
# Lookup of reported pEC50 keyed by entry

| MOLECULE | pEC50 |
| --- | --- |
| O=C(C1CCS(=O)(=O)CC1)N1CC[C@@]2(S(=O)(=O)c3ccc(F)cc3)c3ccc(Cc4ccccc4)cc3CC[C@@H]12 | 8.80 |
| CN1CCC(C(=O)N2CC[C@@]3(S(=O)(=O)c4ccc(F)cc4)c4ccc(OCc5cc(Cl)ccc5Cl)cc4CC[C@@H]23)CC1 | 7.12 |
| CN1CCC(C(=O)N2CC[C@@]3(S(=O)(=O)c4ccc(F)cc4)c4ccc(OCc5c(F)cccc5C(F)(F)F)cc4CC[C@@H]23)CC1 | 7.17 |
| O=C(O)[C@H]1CC[C@](O)(C(=O)N2CC[C@@]3(S(=O)(=O)c4ccc(F)cc4)c4ccc(OCc5cc(Cl)ccc5Cl)cc4CC[C@@H]23)CC1 | 8.44 |
| O=C(C1CCS(=O)(=O)C1)N1CC[C@@]2(S(=O)(=O)c3ccc(F)cc3)c3ccc(OCc4cc(F)ccc4Cl)cc3CC[C@@H]12 (stereo partly shown) | 7.92 |
| O=C(C1CCS(=O)(=O)CC1)N1CC[C@@]2(S(=O)(=O)c3ccc(F)cc3)c3ccc(OCc4cccc(Cl)c4)cc3CC[C@@H]12 | 7.85 |
| O=C(C1CCS(=O)(=O)C1)N1CC[C@@]2(S(=O)(=O)c3ccccc3)c3ccc(OCc4c(Cl)cccc4Cl)cc3CC[C@@H]12 (stereo partly shown) | 7.80 |
| O=C1CC[C@H](C(=O)N2CC[C@@]3(S(=O)(=O)c4ccccc4)c4ccc(OCc5c(F)cccc5Cl)cc4CC[C@@H]23)N1 | 6.71 |
| O=C(O)[C@H]1CC[C@H](C(=O)N2CC[C@@]3(S(=O)(=O)c4ccc(F)cc4)c4ccc(OCc5c(F)cccc5Cl)cc4CC[C@@H]23)CC1 | 8.08 |
| O=C(C1CCS(=O)(=O)C1)N1CC[C@@]2(S(=O)(=O)c3ccc(F)cc3)c3ccc(OCc4c(F)cccc4Cl)cc3CC[C@@H]12 (stereo partly shown) [Example 163] | 7.92 |
